assay: basal HepG2 mitochondrial membrane potential changes, profiling panel, cell-based, JC-1 fluorescence, 24 h, 100 nL compound (AID 1167); conditions: higher = more signal; note: test concentration not given here

>  <COMPOUND>
C=CC[C@]1(C(=O)O)COC(c2ccc(OCCCO)cc2)=N1

>  <z-score>
0.0919

$$$$
>  <COMPOUND>
COc1cc(OC)c(C(O)C2C=CC3C(=O)N(c4ccccc4)C(=O)C3N2Nc2ccccc2)cc1Br (stereo unspecified)

>  <z-score>
-2.11

$$$$
>  <COMPOUND>
[N-]=[N+]=Nc1ccccc1[C@H]1OC(c2ccc(OCCCO)cc2)=N[C@@]1(Cc1ccccc1)C(=O)N1CCCCC1

>  <z-score>
-0.251

$$$$
>  <COMPOUND>
CO[C@]12C=C(Br)[C@@H](C[C@@H]1c1cccc(C)c1)[C@@]1(CO1)C2=O

>  <z-score>
-1.11

$$$$
>  <COMPOUND>
NCCCCCCNC(=O)[C@@H]1C[C@@H]2C(=O)N[C@@H](CCCCN)C(=O)N2[C@@H]1c1cccc(OCCO)c1

>  <z-score>
0.0199

$$$$
>  <COMPOUND>
CCC[C@@H]1C[C@@]1(CCC)[C@@H](NC(=O)OCc1ccccc1)c1ccc(-c2ccccc2)cc1

>  <z-score>
-0.862

$$$$
>  <COMPOUND>
COc1ccccc1CN1C(=O)c2ccccc2[C@@]2(Cc3ccccc3N(CC(F)(F)F)C2=O)[C@@H]1c1ccc(CO)cc1

>  <z-score>
-0.505

$$$$
>  <COMPOUND>
O=C1NC(=O)C2C1C=CC(C(O)c1ccco1)N2Nc1ccccn1 (stereo unspecified)

>  <z-score>
-1.33

$$$$
>  <COMPOUND>
O=C1NC(=O)C2C1C=CC(C(O)CCc1ccccc1)N2Nc1ccc(Cl)cc1Cl (stereo unspecified)

>  <z-score>
-2.19

$$$$
>  <COMPOUND>
CCCCC(O)C1C=CC2C(=O)N(c3ccccc3)C(=O)C2N1Nc1ccc(C(C)C)cc1 (stereo unspecified)

>  <z-score>
-1.29

$$$$
>  <COMPOUND>
CCCCC=C[C@@H](NC(=O)c1ccc(-c2ccccc2)cc1)c1ccccc1

>  <z-score>
-4.15

$$$$
>  <COMPOUND>
O=C1O[C@H](c2ccccc2)[C@H](c2ccccc2)N2[C@H]1[C@@H](C(=O)N1CCN(c3ncccn3)CC1)[C@]1(C(=O)Nc3ccc(C#CC4(O)CCCCCC4)cc31)[C@H]2c1ccc(OCCO)cc1

>  <z-score>
-1.73

$$$$
>  <COMPOUND>
C=CCOC(=O)[C@H]1[C@@H]2C(=O)O[C@@H](c3ccccc3)[C@@H](c3ccccc3)N2[C@@H](c2ccc(OCCOC(=O)[C@@H]3C[C@@H]4C(=O)N5CCC[C@H]5C(=O)N4[C@@H]3c3ccc(O)cc3)cc2)[C@]12C(=O)Nc1ccc(I)cc12

>  <z-score>
-1.24

$$$$
>  <COMPOUND>
Cc1ccc(S[C@]2(C(=O)NCC(F)(F)F)CC(=O)N(Cc3ccccc3)[C@@H]2c2ccc(CO)cc2I)cc1

>  <z-score>
-1.75

$$$$
>  <COMPOUND>
CC(C)OC(=O)C=C1C[C@@H](c2ccc(C(F)(F)F)cc2)O[C@@H](c2ccc(C(F)(F)F)cc2)O1

>  <z-score>
-0.393

$$$$
>  <COMPOUND>
COc1cc2c(cc1O)C(C)N(Cc1ccc([N+](=O)[O-])o1)CC2 (stereo unspecified)

>  <z-score>
-2.09

$$$$
